- Test system: SCLC strain SHP-77
- experiment: Colorimetric tetrazolium (MTT) assay for cell survival, SCLC strain SHP-77
- Format: cell-based, human
- conditionSummary: SCLC strain SHP-77 in vitro
Listing of entries alongside the reported MTT: ED50 for killing of SCLC strain SHP-77 in vitro.
Quick note: give the figure in µM, leave out the unit.

Would you please look over these solved cases?
CC1(C)CC(NC(=O)C(Cc2ccc(OCc3c(Cl)cccc3Cl)cc2)NC(=O)C(C#N)=Cc2ccc(O)cc2)CC(C)(C)N1 (stereo not drawn) = 12
CN(C(=O)C(Cc1ccc(OCc2c(Cl)cccc2Cl)cc1)NC(=O)C=Cc1ccccc1)C1CC(C)(C)NC(C)(C)C1 (stereo not drawn) = 1.6

Next compound, please.
Task: What does the data say about its MTT: ED50 for killing of SCLC strain SHP-77 in vitro? Entry: CC1(C)CC(NC(=O)[C@H](Cc2ccc3ccccc3c2)NC(=N)CCCCCCCCCCCCC(=N)N[C@@H](Cc2ccc3ccccc3c2)C(=O)NC2CC(C)(C)NC(C)(C)C2)CC(C)(C)N1 [M254-1]
Output: 5
